Data origin: the supplement of paper PMC10941209

Recorded cell viability for the following molecules
Test system: HFF
Test: cell viability relative to DMSO control; higher = less cytotoxic
Conditions: 1 µM; 72 h
// units = %; emit number, no label

Worked examples follow.
COc1cc(NS(=O)(=O)c2ccc(C)cc2)c2ncccc2c1 :: 72.5
Cc1ncc([N+](=O)[O-])n1CC(C)O (stereo unspecified) :: 68.8
Fc1ccc(-c2nc(-c3c[nH]c4ccc(Br)cc34)[nH]c2-c2ccc(F)cc2)cc1 :: 67.2
Cc1cc(CCOc2c(C)cc(-c3nnn(C)n3)cc2C)on1 :: 69.2
N=C(N)NCCCCC(=O)Nc1cc(C(F)(F)F)cc(NC(=O)c2cc(C(=O)Nc3cc(C(F)(F)F)cc(NC(=O)CCCCNC(=N)N)c3O[C@@H]3CCNC3)ncn2)c1O[C@@H]1CCNC1 :: 57.6
CC(C)/N=c1\cc2n(-c3ccc(Cl)cc3)c3ccccc3nc-2cc1Nc1ccc(Cl)cc1 :: 72.6
O=c1cc(NCCCN[C@@H]2CCOc3c(Br)cc(Br)cc32)[nH]c2ccsc12 :: 79.4
O=S(=O)(NCB(O)O)c1cc2c(Cl)ccc(Cl)c2s1 :: 68

query: Quick one: cell viability of `CN(C)CC(=O)Nc1ccc2[nH]c(=O)c3ccccc3c2c1` ?
result: 59.3

query: Quick one: cell viability of `Nc1nnnn1CCOc1c2[nH]c3ccc(Cl)cc3c2cc2c1[nH]c1ccc(Cl)cc12` ?
result: 65.4

query: Quick one: cell viability of `Nc1nc(C(F)(F)F)cc2c1[nH]c(=O)n2Cc1ccccc1` ?
result: 65
